# Srxn1-GFP intensity median modified Z-score per entry
# Test system: HepG2 Srxn1-GFP reporter cells (+30 nM CDDO-Me)
# ASSAY COMMENT: Srxn1-GFP intensity median modified Z-score relative to plate median; higher = stronger NRF2 / oxidative stress reporter activation, active = hit call of the paper
# TEST CONDITIONS: 10 µM; exposure time: 24h
Among all 2,300 compounds or so, about 330 (14%) showed activity. A selection follows.
Answer with a bare number; do not write a unit.

Request: Please give measured Srxn1-GFP intensity median modified Z-score of the following entry: Cn1c(SC2CCCCC2=O)nnc1-c1cccc(Br)c1 (configuration not stated)
Response: 4.66

Request: Please give measured Srxn1-GFP intensity median modified Z-score of the following entry: COc1ccc2c(c1)c(CC(=O)OC/C=C/Cl)c(C)n2C(=O)c1ccc(Cl)cc1
Response: 0.367

Request: Please give measured Srxn1-GFP intensity median modified Z-score of the following entry: Cc1c(C(=O)O)c(O)cc2c(O)c3c(O)c(O)c(C4O[C@H](CO)[C@@H](O)[C@H](O)C4=O)c(O)c3c(O)c12 (some centres not stated) [euspeclibcmpd1436]
Response: -0.693

Further cases:
Request: Please give measured Srxn1-GFP intensity median modified Z-score of the following entry: CC[C@H]1OC(=O)C(C)[C@@H](O[C@H]2C[C@@](C)(OC)[C@@H](O)[C@H](C)O2)[C@H](C)[C@@H](O[C@@H]2O[C@H](C)C[C@H](N(C)C)[C@H]2O)[C@](C)(O)C[C@@H](C)CN(C)[C@H](C)[C@@H](O)[C@]1(C)O (some centres not stated) [euspeclibcmpd690]
Response: 1.41

Request: Please give measured Srxn1-GFP intensity median modified Z-score of the following entry: N=C(N)c1ccc(OCCCCCOc2ccc(C(=N)N)cc2)cc1 [euspeclibcmpd1040]
Response: 12.5

Request: Please give measured Srxn1-GFP intensity median modified Z-score of the following entry: CCc1ccc(CCOc2ccc(Cc3sc(=O)[nH]c3O)cc2)nc1 [euspeclibcmpd684]
Response: -0.309

Request: Please give measured Srxn1-GFP intensity median modified Z-score of the following entry: CC(C)(C)NC[C@@H](O)COc1nsnc1N1CCOCC1 [euspeclibcmpd295]
Response: -0.119
